experimental-target: Beta-secretase 1 (Homo sapiens, UniProt P56817)
Sequence (P56817 whole entry): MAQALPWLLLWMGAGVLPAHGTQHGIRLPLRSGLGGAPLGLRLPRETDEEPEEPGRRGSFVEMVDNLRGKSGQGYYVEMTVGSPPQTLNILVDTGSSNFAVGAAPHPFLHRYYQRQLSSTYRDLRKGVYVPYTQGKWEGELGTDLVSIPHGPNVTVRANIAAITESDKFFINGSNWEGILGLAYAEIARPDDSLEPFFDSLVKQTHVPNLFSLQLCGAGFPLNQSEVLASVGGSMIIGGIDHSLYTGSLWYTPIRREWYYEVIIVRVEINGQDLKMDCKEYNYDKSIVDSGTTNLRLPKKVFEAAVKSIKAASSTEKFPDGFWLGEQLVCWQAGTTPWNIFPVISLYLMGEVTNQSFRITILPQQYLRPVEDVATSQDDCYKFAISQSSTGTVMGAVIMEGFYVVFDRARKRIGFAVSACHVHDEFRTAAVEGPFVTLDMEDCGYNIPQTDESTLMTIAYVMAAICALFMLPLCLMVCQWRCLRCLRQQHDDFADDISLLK
experiment-summary: Inhibition of BACE1 in HEK293 cells
Format: cell-based

smiles-string: CC(=O)N[C@@H](Cc1cc(F)cc(F)c1)[C@H](O)CNC1(c2cc(C)cc(C(C)(C)C)c2)CCCCC1
ED50: 240 nM

smiles-string: CC(=O)N[C@@H](Cc1cc(F)cc(F)c1)[C@H](O)CNC1(c2cn(CC(C)(C)C)nn2)CC1
ED50: 725 nM

smiles-string: CC(=O)N[C@@H](Cc1cc(F)cc(F)c1)[C@H](O)CNC1(c2ccc(Br)c(C(C)(C)C)c2)CCCCC1
ED50: 2000 nM

smiles-string: CC(=O)N[C@@H](Cc1cc(F)cc(F)c1)[C@H](O)CNC1(c2ccc(CC(C)(C)C)s2)CC1
ED50: 1480 nM

smiles-string: CC(=O)N[C@@H](Cc1cc(F)cc(F)c1)[C@H](O)CNC1(c2cc(CC(C)(C)C)no2)CCCCC1
ED50: 88 nM

smiles-string: CC(=O)N[C@@H](Cc1cc(F)cc(F)c1)[C@H](O)CNC1(c2cc(C(C)(C)C)no2)CCCCC1
ED50: 3710 nM

smiles-string: CC(=O)N[C@@H](Cc1cc(F)cc(F)c1)[C@H](O)CNC1(c2cc(Br)cc(C(C)(C)C)c2)CCCCC1
ED50: 435 nM

smiles-string: CC(=O)N[C@@H](Cc1cc(F)cc(F)c1)[C@H](O)CNC1(c2cn(C[Si](C)(C)C)nn2)CCCCC1
ED50: 6 nM

smiles-string: CC(=O)N[C@@H](Cc1cc(F)cc(F)c1)[C@H](O)CNC1(c2ccc(C(C)C)s2)CCCCC1
ED50: 1040 nM

smiles-string: CC(=O)N[C@@H](Cc1cc(F)cc(F)c1)[C@H](O)CNC1(c2ccn(CC(C)(C)C)n2)CC1
ED50: 430 nM

smiles-string: CC(=O)N[C@@H](Cc1cc(F)cc(F)c1)[C@H](O)CNC1(c2cncc(CC(C)(C)C)c2)CC1
ED50: 310 nM

smiles-string: CC(=O)N[C@@H](Cc1cc(F)cc(F)c1)[C@H](O)CNC1(c2cnn(C(C)(C)C)c2)CCCCC1
ED50: 235 nM

smiles-string: CC(=O)N[C@@H](Cc1cc(F)cc(F)c1)[C@H](O)CNC1(c2cc(N)cc(C(C)(C)C)c2)CCCCC1
ED50: 25 nM

smiles-string: CC(=O)N[C@@H](Cc1cc(F)cc(F)c1)[C@H](O)CNC1(c2csc(C(C)C)c2)CCCCC1
ED50: < 80 nM

smiles-string: CC(=O)N[C@@H](Cc1cc(F)cc(F)c1)[C@H](O)CNC1(c2cc(C(C)=O)cc(C(C)(C)C)c2)CCCCC1
ED50: 33 nM

smiles-string: CC(=O)N[C@@H](Cc1cc(F)cc(F)c1)[C@H](O)CNC1(c2cnn(CC(C)(C)C)c2)CCCCC1
ED50: 23 nM

---

experiment-summary: Lipophilicity, log P of the compound
Type: physicochemical
particulars: octanol/water
recorded-metric: logP

smiles-string: CC(=O)N[C@@H](Cc1cc(F)cc(F)c1)[C@H](O)CNC1(c2cccc(C(C)(C)C)c2)CC1
recorded-metric: logP
measured-value: 4.6
//
smiles-string: CC(=O)N[C@@H](Cc1cc(F)cc(F)c1)[C@H](O)CNC1(c2cc(CC(C)(C)C)no2)CCCCC1
recorded-metric: logP
measured-value: 4.2
//
smiles-string: CC(=O)N[C@@H](Cc1cc(F)cc(F)c1)[C@H](O)CNC1(c2nc(CC(C)(C)C)cs2)CC1
recorded-metric: logP
measured-value: 4.3
//
smiles-string: CC(=O)N[C@@H](Cc1cc(F)cc(F)c1)[C@H](O)CNC1(c2cnn(CC(C)(C)C)c2)CC1
recorded-metric: logP
measured-value: 3
//
smiles-string: CC(=O)N[C@@H](Cc1cc(F)cc(F)c1)[C@H](O)CNC1(c2cc(C(C)(C)C)ncn2)CCCCC1
recorded-metric: logP
measured-value: 3.7
//
smiles-string: CC(=O)N[C@@H](Cc1cc(F)cc(F)c1)[C@H](O)CNC1(c2cncc(CC(C)(C)C)c2)CC1
recorded-metric: logP
measured-value: 4.2

---

experimental-target: Beta-secretase 1 (Homo sapiens, UniProt P56817)

smiles-string: CC(=O)N[C@@H](Cc1cc(F)cc(F)c1)[C@H](O)CNC1(c2cc(I)cc(C(C)(C)C)c2)CCCCC1
IC50, µM: 0.223
//
smiles-string: COc1cc(C(C)(C)C)cc(C2(NC[C@@H](O)[C@H](Cc3cc(F)cc(F)c3)NC(C)=O)CCCCC2)c1
IC50, µM: 0.077
//
smiles-string: CC(=O)N[C@@H](Cc1cc(F)cc(F)c1)[C@H](O)CNC1(c2cc(C(C)(C)C)ncn2)CCCCC1
IC50, µM: 2.43
//
smiles-string: CC(=O)N[C@@H](Cc1cc(F)cc(F)c1)[C@H](O)CNC1(c2cncc(CC(C)(C)C)c2)CC1
IC50, µM: 0.78

---

experimental-target: Beta-secretase 1 (Homo sapiens, UniProt P56817)
experiment-summary: Inhibition of BACE1 in HEK293 cells
Type: cell-based
The source made the active and inactive calls. No cut-off for these calls is given here.

smiles-string: CC(=O)N[C@@H](Cc1cc(F)cc(F)c1)[C@H](O)CNC1(c2nc(CC(C)(C)C)cs2)CC1
ED50: > 10000 nM
//
smiles-string: CC(=O)N[C@@H](Cc1cc(F)cc(F)c1)[C@H](O)CNC1(c2cn(C34CC5CC(CC(C5)C3)C4)nn2)CCCCC1
ED50: inactive
//
smiles-string: CC(=O)N[C@@H](Cc1cc(F)cc(F)c1)[C@H](O)CNC1(c2cc(I)cc(C(C)(C)C)c2)CCCCC1
ED50: 185 nM
//
smiles-string: CC(=O)N[C@@H](Cc1cc(F)cc(F)c1)[C@H](O)CNC1(c2cc(F)cc(C(C)(C)C)c2)CCCCC1
ED50: 9 nM
//
smiles-string: CC(=O)N[C@@H](Cc1cc(F)cc(F)c1)[C@H](O)CNC1(c2cnn(CC(C)(C)C)c2)CC1
ED50: 68 nM
//
smiles-string: CC(=O)N[C@@H](Cc1cc(F)cc(F)c1)[C@H](O)CNC1(c2cc(C(C)(C)C)ccn2)CC1
ED50: 229 nM
//
smiles-string: CC(=O)N[C@@H](Cc1cc(F)cc(F)c1)[C@H](O)CNC1(c2cc(C(C)(C)C)cs2)CCCCC1
ED50: 10 nM
//
smiles-string: CC(=O)N[C@@H](Cc1cc(F)cc(F)c1)[C@H](O)CNC1(c2cccc(CC(C)(C)C)c2)CCCCC1
ED50: 440 nM
//
smiles-string: CC(=O)N[C@@H](Cc1cc(F)cc(F)c1)[C@H](O)CNC1(c2ncc(C(C)(C)C)o2)CC1
ED50: > 10000 nM
//
smiles-string: CCc1csc(C2(NC[C@@H](O)[C@H](Cc3cc(F)cc(F)c3)NC(C)=O)CCCCC2)c1
ED50: 107 nM
//
smiles-string: CC(=O)N[C@@H](Cc1cc(F)cc(F)c1)[C@H](O)CNC1(c2cc(O)cc(C(C)(C)C)c2)CCCCC1
ED50: inactive
//
smiles-string: CC(=O)N[C@@H](Cc1cc(F)cc(F)c1)[C@H](O)CNC1(c2cc(CC(C)(C)C)c[n+]([O-])c2)CC1
ED50: 8700 nM
//
smiles-string: CC(=O)N[C@@H](Cc1cc(F)cc(F)c1)[C@H](O)CNC1(c2cccc(CC(C)(C)C)c2)CC1
ED50: 720 nM
//
smiles-string: CC(=O)N[C@@H](Cc1cc(F)cc(F)c1)[C@H](O)CNC1(c2nc(C(C)(C)C)co2)CCCCC1
ED50: > 10000 nM
//
smiles-string: CC(=O)N[C@@H](Cc1cc(F)cc(F)c1)[C@H](O)CNC1(c2cc(NS(C)(=O)=O)cc(C(C)(C)C)c2)CCCCC1
ED50: inactive
//
smiles-string: C#Cc1csc(C2(NC[C@@H](O)[C@H](Cc3cc(F)cc(F)c3)NC(C)=O)CCCCC2)c1
ED50: 757 nM
//
smiles-string: CC(=O)N[C@@H](Cc1cc(F)cc(F)c1)[C@H](O)CNC1(c2nc(C(C)(C)C)co2)CC1
ED50: > 10000 nM

---

experimental-target: Beta-secretase 1 (Homo sapiens, UniProt P56817)
Returns: string. Value is YES if measured IC50 is below 0.7 µM, and NO if it is greater than or equal to it.

smiles-string: CC(=O)N[C@@H](Cc1cc(F)cc(F)c1)[C@H](O)CNC1(c2cc(C)cc(C(C)(C)C)c2)CCCCC1
experimental-target: Beta-secretase 1 (Homo sapiens, UniProt P56817)
assigned-label: YES

smiles-string: CC(=O)N[C@@H](Cc1cc(F)cc(F)c1)[C@H](O)CNC1(c2ccc(C(C)C)s2)CCCCC1
experimental-target: Beta-secretase 1 (Homo sapiens, UniProt P56817)
assigned-label: NO

smiles-string: CC(=O)N[C@@H](Cc1cc(F)cc(F)c1)[C@H](O)CNC1(c2ccn(CC(C)(C)C)n2)CC1
experimental-target: Beta-secretase 1 (Homo sapiens, UniProt P56817)
assigned-label: NO

smiles-string: CC(=O)N[C@@H](Cc1cc(F)cc(F)c1)[C@H](O)CNC1(c2cccc(C(C)(C)C)c2)CC1
experimental-target: Beta-secretase 1 (Homo sapiens, UniProt P56817)
assigned-label: YES

smiles-string: CC(=O)N[C@@H](Cc1cc(F)cc(F)c1)[C@H](O)CNC1(c2cc(C(C)(C)C)ccn2)CC1
experimental-target: Beta-secretase 1 (Homo sapiens, UniProt P56817)
assigned-label: YES

smiles-string: CC(=O)N[C@@H](Cc1cc(F)cc(F)c1)[C@H](O)CNC1(c2nc(C(C)(C)C)co2)CCCCC1
experimental-target: Beta-secretase 1 (Homo sapiens, UniProt P56817)
assigned-label: NO

smiles-string: CC(=O)N[C@@H](Cc1cc(F)cc(F)c1)[C@H](O)CNC1(c2cc(O)cc(C(C)(C)C)c2)CCCCC1
experimental-target: Beta-secretase 1 (Homo sapiens, UniProt P56817)
assigned-label: YES

smiles-string: CC(=O)N[C@@H](Cc1cc(F)cc(F)c1)[C@H](O)CNC1(c2cc(CC(C)(C)C)no2)CCCCC1
experimental-target: Beta-secretase 1 (Homo sapiens, UniProt P56817)
assigned-label: YES

smiles-string: CC(=O)N[C@@H](Cc1cc(F)cc(F)c1)[C@H](O)CNC1(c2cnn(CC(C)(C)C)c2)CCCCC1
experimental-target: Beta-secretase 1 (Homo sapiens, UniProt P56817)
assigned-label: YES

smiles-string: CC(=O)N[C@@H](Cc1cc(F)cc(F)c1)[C@H](O)CNC1(c2ccc(Br)c(C(C)(C)C)c2)CCCCC1
experimental-target: Beta-secretase 1 (Homo sapiens, UniProt P56817)
assigned-label: NO

smiles-string: CC(=O)N[C@@H](Cc1cc(F)cc(F)c1)[C@H](O)CNC1(c2cn(C[Si](C)(C)C)nn2)CCCCC1
experimental-target: Beta-secretase 1 (Homo sapiens, UniProt P56817)
assigned-label: YES

smiles-string: CC(=O)N[C@@H](Cc1cc(F)cc(F)c1)[C@H](O)CNC1(c2cccc(CC(C)(C)C)c2)CCCCC1
experimental-target: Beta-secretase 1 (Homo sapiens, UniProt P56817)
assigned-label: NO

smiles-string: CC(=O)N[C@@H](Cc1cc(F)cc(F)c1)[C@H](O)CNC1(c2cc(CC(C)(C)C)cs2)CCCCC1
experimental-target: Beta-secretase 1 (Homo sapiens, UniProt P56817)
assigned-label: YES

smiles-string: CC(=O)N[C@@H](Cc1cc(F)cc(F)c1)[C@H](O)CNC1(c2ncc(C(C)(C)C)o2)CCCCC1
experimental-target: Beta-secretase 1 (Homo sapiens, UniProt P56817)
assigned-label: NO

smiles-string: CC(=O)N[C@@H](Cc1cc(F)cc(F)c1)[C@H](O)CNC1(c2ncc(C(C)(C)C)o2)CC1
experimental-target: Beta-secretase 1 (Homo sapiens, UniProt P56817)
assigned-label: NO

smiles-string: C#Cc1csc(C2(NC[C@@H](O)[C@H](Cc3cc(F)cc(F)c3)NC(C)=O)CCCCC2)c1
experimental-target: Beta-secretase 1 (Homo sapiens, UniProt P56817)
assigned-label: NO

smiles-string: CC(=O)N[C@@H](Cc1cc(F)cc(F)c1)[C@H](O)CNC1(c2nc(CC(C)(C)C)cs2)CC1
experimental-target: Beta-secretase 1 (Homo sapiens, UniProt P56817)
assigned-label: NO

smiles-string: CC(=O)N[C@@H](Cc1cc(F)cc(F)c1)[C@H](O)CNC1(c2cc(C(C)(C)C)cs2)CCCCC1
experimental-target: Beta-secretase 1 (Homo sapiens, UniProt P56817)
assigned-label: YES
